These entries and their values trace back to the kinase profiling compilation of Christmann-Franck et al. (2016).

- ASSAY SYSTEM: UniProtKB Q86UE8
- Sequence (Q86UE8 whole entry, looked up): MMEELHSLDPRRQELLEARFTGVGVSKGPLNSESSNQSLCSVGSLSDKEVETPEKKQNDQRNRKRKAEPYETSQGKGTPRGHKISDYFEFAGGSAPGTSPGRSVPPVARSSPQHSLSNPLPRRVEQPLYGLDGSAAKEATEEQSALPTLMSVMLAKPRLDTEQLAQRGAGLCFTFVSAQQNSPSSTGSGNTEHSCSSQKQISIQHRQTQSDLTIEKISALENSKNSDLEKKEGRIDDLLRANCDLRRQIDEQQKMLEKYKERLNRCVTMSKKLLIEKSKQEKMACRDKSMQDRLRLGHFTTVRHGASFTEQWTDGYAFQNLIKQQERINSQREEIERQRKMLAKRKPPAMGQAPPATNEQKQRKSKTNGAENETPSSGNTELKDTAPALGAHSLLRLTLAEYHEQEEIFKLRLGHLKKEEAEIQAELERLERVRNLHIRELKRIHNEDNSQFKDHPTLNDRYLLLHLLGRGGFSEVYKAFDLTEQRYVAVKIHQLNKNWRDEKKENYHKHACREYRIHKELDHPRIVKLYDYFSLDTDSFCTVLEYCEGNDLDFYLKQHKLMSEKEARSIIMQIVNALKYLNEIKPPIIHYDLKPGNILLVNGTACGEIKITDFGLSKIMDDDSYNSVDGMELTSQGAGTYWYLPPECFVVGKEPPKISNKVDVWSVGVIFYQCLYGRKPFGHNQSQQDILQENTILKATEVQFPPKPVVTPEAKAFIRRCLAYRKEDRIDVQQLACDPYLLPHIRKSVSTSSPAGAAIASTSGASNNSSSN
- METHOD SUMMARY: KINOMEscan competition binding
- EXPERIMENTAL CONDITIONS: compound 10.0 µM
MEASUREMENT TYPE: kinase still bound, per cent of control (%)
Reply numerically in %, unit not repeated.

{"columns": ["SMILES STRUCTURE", "kinase still bound, per cent of control / %"],
 "data": [
  ["N=C1NC(=O)/C(=C/c2ccc(-c3cncc4ccccc34)o2)S1", 23],
  ["CN(C)C1=NC(=O)/C(=C/c2ccc(-c3ccc(S(N)(=O)=O)cc3)o2)S1", 33]
]}

For the next question, use this compound.
Report kinase still bound, per cent of control for O=C1NC(=O)/C(=C/c2c[nH]c(=O)c(-c3ccc(N4CCNCC4)nc3)c2)S1 tested on UniProtKB Q86UE8.
99
